As shown below, each of these molecules has a reported % Conversion (prodrug converted to parent drug) value.
test: Regeneration of parent drug from bone powder-bound prodrug; assay type: in vitro ADME; conditions: 50% rat serum, 24 h incubation, 37° C.
Readout Name: % Conversion (prodrug converted to parent drug)

CC(C)C[C@H](C(=O)N[C@H]1C(=O)N[C@@H](CC(N)=O)C(=O)N[C@H]2C(=O)N[C@H]3C(=O)N[C@H](C(=O)N[C@H](C(=O)O)c4cc(O)cc(O)c4-c4cc3ccc4O)[C@H](O[C@H]3C[C@](C)(N)[C@@H](O)[C@H](C)O3)c3ccc(c(Cl)c3)Oc3cc2cc(c3O[C@@H]2O[C@H](CO)[C@@H](O)[C@H](O)[C@H]2O[C@H]2C[C@](C)(NCc3ccc(-c4ccc(Cl)cc4)cc3)[C@@H](O)[C@H](C)O2)Oc2ccc(cc2Cl)[C@H]1O)N(C)C(=O)CCC(P(=O)(O)O)P(=O)(O)O    0.9%
CNC(CC(C)C)C(=O)NC1C(=O)NC(CC(N)=O)C(=O)NC2C(=O)NC3C(=O)NC(C(=O)NC(C(=O)OCC(=O)Nc4ccc(CC(P(=O)(O)O)P(=O)(O)O)cc4)c4cc(O)cc(O)c4-c4cc3ccc4O)C(O)c3ccc(c(Cl)c3)Oc3cc2cc(c3OC2OC(CO)C(O)C(O)C2OC2CC(C)(N)C(O)C(C)O2)Oc2ccc(cc2Cl)C1O (stereo not shown)    4.1%
CC(C)C[C@H](C(=O)N[C@H]1C(=O)N[C@@H](CC(N)=O)C(=O)N[C@H]2C(=O)N[C@H]3C(=O)N[C@H](C(=O)N[C@H](C(=O)O)c4cc(O)cc(O)c4-c4cc3ccc4O)[C@H](O[C@H]3C[C@](C)(N)[C@@H](O)[C@H](C)O3)c3ccc(c(Cl)c3)Oc3cc2cc(c3O[C@@H]2O[C@H](CO)[C@@H](O)[C@H](O)[C@H]2O[C@H]2C[C@](C)(NCc3ccc(-c4ccc(Cl)cc4)cc3)[C@@H](O)[C@H](C)O2)Oc2ccc(cc2Cl)[C@H]1O)N(C)C(=O)OCOC(=O)CCCC(P(=O)(O)O)P(=O)(O)O    0.05%
CNC(CC(C)C)C(=O)NC1C(=O)NC(CC(N)=O)C(=O)NC2C(=O)NC3C(=O)NC(C(=O)NC(C(=O)OCC(=O)NC(P(=O)(O)O)P(=O)(O)O)c4cc(O)cc(O)c4-c4cc3ccc4O)C(O)c3ccc(c(Cl)c3)Oc3cc2cc(c3OC2OC(CO)C(O)C(O)C2OC2CC(C)(N)C(O)C(C)O2)Oc2ccc(cc2Cl)C1O (stereo not shown)    2.58%

* * *

As shown below, each of these molecules has a reported % Conversion (prodrug converted to parent drug) value.
experiment: Regeneration of parent drug from bone powder-bound prodrug; format: in vitro ADME; details: PBS, 24 h incubation, 37° C.
Readout Name: % Conversion (prodrug converted to parent drug) (%)

CNC(CC(C)C)C(=O)NC1C(=O)NC(CC(N)=O)C(=O)NC2C(=O)NC3C(=O)NC(C(=O)NC(C(=O)OCC(=O)Nc4ccc(CC(P(=O)(O)O)P(=O)(O)O)cc4)c4cc(O)cc(O)c4-c4cc3ccc4O)C(O)c3ccc(c(Cl)c3)Oc3cc2cc(c3OC2OC(CO)C(O)C(O)C2OC2CC(C)(N)C(O)C(C)O2)Oc2ccc(cc2Cl)C1O (stereo not shown)    3.5
CNC(CC(C)C)C(=O)NC1C(=O)NC(CC(N)=O)C(=O)NC2C(=O)NC3C(=O)NC(C(=O)NC(C(=O)OCC(=O)NC(P(=O)(O)O)P(=O)(O)O)c4cc(O)cc(O)c4-c4cc3ccc4O)C(O)c3ccc(c(Cl)c3)Oc3cc2cc(c3OC2OC(CO)C(O)C(O)C2OC2CC(C)(N)C(O)C(C)O2)Oc2ccc(cc2Cl)C1O (stereo not shown)    2.09
CC(C)C[C@H](C(=O)N[C@H]1C(=O)N[C@@H](CC(N)=O)C(=O)N[C@H]2C(=O)N[C@H]3C(=O)N[C@H](C(=O)N[C@H](C(=O)O)c4cc(O)cc(O)c4-c4cc3ccc4O)[C@H](O[C@H]3C[C@](C)(N)[C@@H](O)[C@H](C)O3)c3ccc(c(Cl)c3)Oc3cc2cc(c3O[C@@H]2O[C@H](CO)[C@@H](O)[C@H](O)[C@H]2O[C@H]2C[C@](C)(NCc3ccc(-c4ccc(Cl)cc4)cc3)[C@@H](O)[C@H](C)O2)Oc2ccc(cc2Cl)[C@H]1O)N(C)C(=O)CCC(P(=O)(O)O)P(=O)(O)O    0.01

Ref: patent US8946144B2
